Target: UniProt:O75030
Sequence (O75030 whole entry): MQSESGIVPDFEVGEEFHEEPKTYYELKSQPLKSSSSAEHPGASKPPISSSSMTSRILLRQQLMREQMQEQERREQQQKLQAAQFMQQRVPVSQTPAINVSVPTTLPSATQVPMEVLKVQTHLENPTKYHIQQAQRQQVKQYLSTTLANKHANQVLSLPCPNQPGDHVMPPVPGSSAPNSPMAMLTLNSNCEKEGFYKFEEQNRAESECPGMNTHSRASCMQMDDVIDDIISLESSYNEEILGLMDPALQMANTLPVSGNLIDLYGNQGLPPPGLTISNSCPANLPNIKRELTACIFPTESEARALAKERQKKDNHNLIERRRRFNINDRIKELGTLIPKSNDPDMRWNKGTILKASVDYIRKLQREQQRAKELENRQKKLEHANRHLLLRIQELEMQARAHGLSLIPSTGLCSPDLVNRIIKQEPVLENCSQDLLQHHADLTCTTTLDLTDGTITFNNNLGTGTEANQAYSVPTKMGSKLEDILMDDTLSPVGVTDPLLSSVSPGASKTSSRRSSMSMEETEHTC
Assay: TRPM1 promoter luciferase signal decrease, dose response, MITF inhibitor project, cell-based, SK-MEL-5, cherry-picked, set 3 (AID 493073);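 also: SK-MEL-5 melanoma cells with luciferase driven by the MITF target TRPM1 promoter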
Type: functional
Calls of active or inactive are those of the source.
Item-by-item account of AC50
Property: AC50

[
  {
    "Compound": "O=C(N/N=C/c1ccc([N+](=O)[O-])o1)c1ccc(O)cc1 [NIFUROXAZIDE]",
    "Target Of Assay": "UniProt:O75030",
    "Result": "5.2 µM (active)"
  },
  {
    "Compound": "O=C(O)c1ccc(C(=O)Nc2ccc(F)cc2)cc1",
    "Target Of Assay": "UniProt:O75030",
    "Result": "19.8 µM (active)"
  },
  {
    "Compound": "Cc1cc(C(=O)N/N=C/c2ccc([N+](=O)[O-])o2)c(C)o1",
    "Target Of Assay": "UniProt:O75030",
    "Result": "4.79 µM (active)"
  },
  {
    "Compound": "Cc1ccccc1-c1nc(-c2ccccn2)no1",
    "Target Of Assay": "UniProt:O75030",
    "Result": "4.18 µM (active)"
  },
  {
    "Compound": "O=C(Nc1ccc(N2CCOCC2)cc1)c1cnsn1",
    "Target Of Assay": "UniProt:O75030",
    "Result": "3.05 µM (active)"
  },
  {
    "Compound": "CC1(C(=O)N/N=C/c2ccc([N+](=O)[O-])o2)CC1(Br)Br (centres undefined)",
    "Target Of Assay": "UniProt:O75030",
    "Result": "10.3 µM (active)"
  },
  {
    "Compound": "O=C(NCC1CCCCC1)C1(CC2CC(c3cccc(Br)c3)=NO2)CCNCC1 (centres undefined)",
    "Target Of Assay": "UniProt:O75030",
    "Result": "18.1 µM (active)"
  },
  {
    "Compound": "CC(/C=C1\\SC(=O)N(CCCC(=O)O)C1=O)=C\\c1ccccc1",
    "Target Of Assay": "UniProt:O75030",
    "Result": "2.36 µM (active)"
  },
  {
    "Compound": "O=C(CCl)Nc1cccc(S(=O)(=O)N2CCCCCC2)c1",
    "Target Of Assay": "UniProt:O75030",
    "Result": "11.8 µM (active)"
  }
]

====

Molecular target: Methionyl-tRNA synthetase, putative (Trypanosoma brucei brucei, UniProt Q38C91)
Sequence (Q38C91 whole entry): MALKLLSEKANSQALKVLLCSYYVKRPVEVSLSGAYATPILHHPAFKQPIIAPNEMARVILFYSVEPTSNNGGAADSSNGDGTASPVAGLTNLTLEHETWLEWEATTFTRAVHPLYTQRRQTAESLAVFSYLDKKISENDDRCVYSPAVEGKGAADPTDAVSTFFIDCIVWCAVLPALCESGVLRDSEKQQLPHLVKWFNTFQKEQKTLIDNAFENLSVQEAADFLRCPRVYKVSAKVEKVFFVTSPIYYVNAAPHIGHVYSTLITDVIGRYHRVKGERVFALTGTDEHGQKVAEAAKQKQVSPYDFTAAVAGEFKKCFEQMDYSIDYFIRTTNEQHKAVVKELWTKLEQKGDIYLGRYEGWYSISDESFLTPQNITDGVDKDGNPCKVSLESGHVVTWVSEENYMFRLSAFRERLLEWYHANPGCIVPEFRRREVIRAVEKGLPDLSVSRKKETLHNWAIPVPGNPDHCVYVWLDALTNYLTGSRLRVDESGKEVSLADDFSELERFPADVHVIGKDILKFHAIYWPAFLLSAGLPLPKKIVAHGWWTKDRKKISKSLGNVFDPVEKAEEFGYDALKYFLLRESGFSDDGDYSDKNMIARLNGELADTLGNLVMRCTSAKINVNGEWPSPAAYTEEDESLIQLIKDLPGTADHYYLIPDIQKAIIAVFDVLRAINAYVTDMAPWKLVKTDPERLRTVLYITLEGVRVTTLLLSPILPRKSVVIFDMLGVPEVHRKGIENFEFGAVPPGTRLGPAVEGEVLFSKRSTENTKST
Assay type: functional, Trypanosoma brucei brucei strain 927/4 GUTat10.1
Calls of active or inactive are those of the source.
Possible outcomes: active, inactive

[
  {
    "Compound": "COc1cccc(NC(=O)CN(C)CC(=O)Nc2ccc(Br)cc2)c1",
    "Discrete Label": "inactive"
  },
  {
    "Compound": "O=C(COC(=O)CCCOc1ccc(Cl)cc1Cl)NCc1ccccc1",
    "Discrete Label": "inactive"
  },
  {
    "Compound": "COc1ccccc1-n1c(SCC(=O)Nc2ccc(Cl)cc2)nc(=O)c(Cc2ccccc2)c1O",
    "Discrete Label": "active"
  },
  {
    "Compound": "O=C1CC(N(CCc2ccccc2)C(=S)Nc2ccccc2)C(=O)N1c1ccc(Br)cc1 (centres undefined)",
    "Discrete Label": "active"
  }
]
